Tested on: PC-3 prostate
Assay: NCI tumour cell line growth inhibition, 48 h
attribute measured: GI50

Record excerpt, results attached:
NS(=O)(=O)c1cccc(-c2cc3ccncc3cc2OCc2ccccc2)c1 | 10800 nM
Cc1ccc(NC(C(=O)c2ccccc2)c2ccccc2)cc1 (stereo not given) | 2780 nM
Cc1cc(N2CCN(C)CC2)nc(N(CCNc2ccnc3cc(Cl)ccc23)Cc2ccco2)n1 | 3700 nM
CCOC(=O)C1=C(C)NC(C)=C(C(=O)OCC)C1c1cc(Br)c(O)c(OC)c1 | 3620 nM

Enquiry: Fill in the blank: the reported GI50 of `CC(=O)Nc1cc(C(c2ccccc2)c2ccccc2)cc(C(c2ccccc2)c2ccccc2)c1C` is ____.
Return: 4130 nM

Enquiry: Fill blank: measured GI50 of the molecule CCCCCCCCCCCCNC(=O)[C@H]1CSC(c2cc(Br)cs2)N1 (stereo not given in full) is ____.
Return: 981 nM

Enquiry: Look at this molecule and give its reported GI50. `O=C1/C(=C\c2ccc([N+](=O)[O-])cc2)CS(=O)(=O)C/C1=C/c1ccc([N+](=O)[O-])cc1`
Return: 194 nM

Enquiry: What does the data say about its GI50? Entry: `COc1ccccc1N(C(C)=O)C1=C(Cl)C(=O)c2ccccc2C1=O`
Return: 1170 nM

Enquiry: Returns the measured GI50 for the input molecule. Input: `COC(=O)c1c2c(c(C)[n+]([O-])c1C)C(=O)C=C(NCc1ccc(Br)cc1)C2=O`
Return: 428 nM

Enquiry: Can you share its GI50? I mean this molecule: `O=c1[nH]cc(CO)c(=O)[nH]1`
Return: > 100000 nM
